Numbers sourced from ChEMBL document CHEMBL1140227.

Assignment: determine reported growth, % of control at 10 µM for the given molecules.
System: OVCAR-5
Measurement notes: Growth inhibition of human OVCAR5 cells at 10 uM relative to control
Assay type: functional
Condition context: values are per cent of control
One number for each entry, in %.

Dear colleague, could you send me growth, % of control at 10 µM for each of the items below? Thanks.
1. O=C(NO)c1cn(C/C=C/c2ccccc2)nn1
2. O=C(/C=C/c1cn(CCc2ccccc2)nn1)NO
3. O=C(/C=C/c1cn(CC(=O)c2ccccc2)nn1)NO
4. O=C(/C=C/c1cn(CC(=O)Nc2ccccc2)nn1)NO
5. O=C(/C=C/c1cn(C/C=C/c2ccccc2)nn1)NO

output:
[104, 23.5, 65, 79, 1.43]

input: For the molecule "O=C(Cn1cc(C(=O)NO)nn1)c1ccccc1" , give its measured growth, % of control at 10 µM value.
output: 84.1

###

Test system: SF-295
Measurement notes: Growth inhibition of human SF295 cells at 10 uM relative to control
Type: functional
Condition context: values are per cent of control
Under this convention, label 1 denotes growth, % of control at 10 µM strictly below 80% and label 0 denotes growth, % of control at 10 µM at or above 80%.

Use these answered entries as a reference point.
O=C(/C=C/c1cn(CC(=O)c2ccccc2)nn1)NO	label 1
O=C(NO)c1cn(C/C=C/c2ccccc2)nn1	label 0
O=C(/C=C/c1cn(CCc2ccccc2)nn1)NO	label 1
O=C(/C=C/c1cn(C/C=C/c2ccccc2)nn1)NO	label 1

input: growth, % of control at 10 µM under 80%? Item: "O=C(Cn1cc(C(=O)NO)nn1)c1ccccc1"
output: label 0

###

Assignment: determine reported growth, % of control at 10 µM for the given molecules.
Tested on: CAKI-1
Measurement notes: Growth inhibition of human Caki1 cells at 10 uM relative to control
Format: functional
Condition context: values are per cent of control
Numbers only, in %.

Example molecules with recorded growth, % of control at 10 µM:
O=C(/C=C/c1cn(CC(=O)Nc2ccccc2)nn1)NO	81.7
O=C(/C=C/c1cn(C/C=C/c2ccccc2)nn1)NO	7.42
O=C(/C=C/c1cn(CCc2ccccc2)nn1)NO	52.9
O=C(NO)c1cn(C/C=C/c2ccccc2)nn1	95

Now for a further molecule.
input: For the molecule "O=C(/C=C/c1cn(CC(=O)c2ccccc2)nn1)NO" , give its measured growth, % of control at 10 µM value.
output: 63.9

###

Tested on: MDA-MB-231
Measurement notes: Growth inhibition of human MDA-MB-231 cells at 10 uM relative to control
Assay type: functional
Condition context: values are per cent of control
Property name: growth, % of control at 10 µM (%)
One number for each entry, in %.

O=C(/C=C/c1cn(CC(=O)Nc2ccccc2)nn1)NO	104
O=C(Cn1cc(C(=O)NO)nn1)c1ccccc1	101
O=C(NO)c1cn(C/C=C/c2ccccc2)nn1	96.1
O=C(/C=C/c1cn(CCc2ccccc2)nn1)NO	60.3
O=C(/C=C/c1cn(CC(=O)c2ccccc2)nn1)NO	96.9

Now for a further compound.
input: For the compound "O=C(/C=C/c1cn(C/C=C/c2ccccc2)nn1)NO" , give its measured growth, % of control at 10 µM value.
output: 20.9

###

Test system: ACHN
Measurement notes: Growth inhibition of human ACHN cells at 10 uM relative to control
Format: functional
Condition context: values are per cent of control
Property name: growth, % of control at 10 µM
Kindly report the value followed by its unit.

Example compounds with recorded growth, % of control at 10 µM:
O=C(/C=C/c1cn(CCc2ccccc2)nn1)NO	29.3%
O=C(/C=C/c1cn(CC(=O)c2ccccc2)nn1)NO	82.5%
O=C(Cn1cc(C(=O)NO)nn1)c1ccccc1	99.2%

Dear colleague, could you send me growth, % of control at 10 µM for each of the items below? Thanks.
1. O=C(/C=C/c1cn(C/C=C/c2ccccc2)nn1)NO
2. O=C(NO)c1cn(C/C=C/c2ccccc2)nn1
3. O=C(/C=C/c1cn(CC(=O)Nc2ccccc2)nn1)NO

output:
-51.2%
101%
113%

###

System: MCF7
Measurement notes: Growth inhibition of human MCF7 cells at 10 uM relative to control
Type: functional
Condition context: values are per cent of control
Property name: growth, % of control at 10 µM (%)
Answers are plain numbers, in %.

Example molecules with recorded growth, % of control at 10 µM:
O=C(/C=C/c1cn(CCc2ccccc2)nn1)NO	63.7
O=C(/C=C/c1cn(C/C=C/c2ccccc2)nn1)NO	13.6

Dear colleague, could you send me growth, % of control at 10 µM for each of the items below? Thanks.
1. O=C(Cn1cc(C(=O)NO)nn1)c1ccccc1
2. O=C(NO)c1cn(C/C=C/c2ccccc2)nn1
3. O=C(/C=C/c1cn(CC(=O)Nc2ccccc2)nn1)NO
4. O=C(/C=C/c1cn(CC(=O)c2ccccc2)nn1)NO

output:
[112, 122, 95.8, 77.8]

###

Test system: 786-0
Measurement notes: Growth inhibition of human 786-0 cells at 10 uM relative to control
Format: functional
Condition context: values are per cent of control
Under this convention, y denotes growth, % of control at 10 µM strictly below 40% and n denotes growth, % of control at 10 µM at or above 40%.

input: growth, % of control at 10 µM under 40%? Item: "O=C(Cn1cc(C(=O)NO)nn1)c1ccccc1"
output: n

input: growth, % of control at 10 µM under 40%? Item: "O=C(/C=C/c1cn(C/C=C/c2ccccc2)nn1)NO"
output: y

input: growth, % of control at 10 µM under 40%? Item: "O=C(/C=C/c1cn(CCc2ccccc2)nn1)NO"
output: y

input: growth, % of control at 10 µM under 40%? Item: "O=C(NO)c1cn(C/C=C/c2ccccc2)nn1"
output: n

input: growth, % of control at 10 µM under 40%? Item: "O=C(/C=C/c1cn(CC(=O)Nc2ccccc2)nn1)NO"
output: n

###

Test system: OVCAR-3
Measurement notes: Growth inhibition of human OVCAR-3 cells at 10 uM relative to control
Type: functional
Condition context: values are per cent of control
Property name: growth, % of control at 10 µM (%)
Answers are plain numbers, in %.

Example compounds with recorded growth, % of control at 10 µM:
O=C(/C=C/c1cn(C/C=C/c2ccccc2)nn1)NO	-16.2
O=C(/C=C/c1cn(CCc2ccccc2)nn1)NO	61.3
O=C(Cn1cc(C(=O)NO)nn1)c1ccccc1	146
O=C(/C=C/c1cn(CC(=O)c2ccccc2)nn1)NO	57.7

Now for a further compound.
input: For the compound "O=C(NO)c1cn(C/C=C/c2ccccc2)nn1" , give its measured growth, % of control at 10 µM value.
output: 97.1

###

System: UACC-257
Measurement notes: Growth inhibition of human UACC257 cells at 10 uM relative to control
Type: functional
Condition context: values are per cent of control
Property name: growth, % of control at 10 µM
Kindly report the value followed by its unit.

Example compounds with recorded growth, % of control at 10 µM:
O=C(Cn1cc(C(=O)NO)nn1)c1ccccc1	112%
O=C(/C=C/c1cn(CC(=O)Nc2ccccc2)nn1)NO	54.4%
O=C(/C=C/c1cn(CCc2ccccc2)nn1)NO	19.5%
O=C(/C=C/c1cn(C/C=C/c2ccccc2)nn1)NO	-32.1%
O=C(/C=C/c1cn(CC(=O)c2ccccc2)nn1)NO	43.9%

input: For the compound "O=C(NO)c1cn(C/C=C/c2ccccc2)nn1" , give its measured growth, % of control at 10 µM value.
output: 125%

###

Measurement notes: Growth inhibition of human Hs 578T cells at 10 uM relative to control
Assay type: functional
Condition context: values are per cent of control
Under this convention, Y denotes growth, % of control at 10 µM strictly below 90% and N denotes growth, % of control at 10 µM at or above 90%.

Use these answered entries as a reference point.
O=C(/C=C/c1cn(CC(=O)c2ccccc2)nn1)NO	N
O=C(/C=C/c1cn(CC(=O)Nc2ccccc2)nn1)NO	Y
O=C(/C=C/c1cn(C/C=C/c2ccccc2)nn1)NO	Y

Let's switch to this compound now.
input: growth, % of control at 10 µM under 90%? Item: "O=C(NO)c1cn(C/C=C/c2ccccc2)nn1"
output: N

###

Test system: HL-60(TB)
Measurement notes: Growth inhibition of human HL-60(TB) cells at 10 uM relative to control
Format: functional
Condition context: read-out: INH
Assignment: determine reported growth, % of control at 10 µM for the given compounds.
One number for each entry, in %.

Example compounds with recorded growth, % of control at 10 µM:
O=C(NO)c1cn(C/C=C/c2ccccc2)nn1	94.5
O=C(Cn1cc(C(=O)NO)nn1)c1ccccc1	136
O=C(/C=C/c1cn(C/C=C/c2ccccc2)nn1)NO	-5.68
O=C(/C=C/c1cn(CC(=O)c2ccccc2)nn1)NO	258

Dear colleague, could you send me growth, % of control at 10 µM for each of the items below? Thanks.
1. O=C(/C=C/c1cn(CCc2ccccc2)nn1)NO
2. O=C(/C=C/c1cn(CC(=O)Nc2ccccc2)nn1)NO

output:
-10.7
153
